- test summary: Cytotoxicity against mouse RAW264.7 cells at 50 uM after 72 hrs by MTT assay
- Type: cell-based
- experimental setup: read-out: INH
reported endpoint: cytotoxicity at 72 h, 50 µM (%)
Just the number please, in %, no unit attached.

Please review the entries below; each comes with its answer.
[[record]]
molecule = "O=C(Cn1c(=O)oc2cc([N+](=O)[O-])ccc21)NCc1cccs1"
reported_endpoint = "cytotoxicity at 72 h, 50 µM"
measured_number = 36.5

[[record]]
molecule = "O=C(Cn1c(=O)oc2cc(Cl)ccc21)Nc1cc(C(F)(F)F)ccc1Cl"
reported_endpoint = "cytotoxicity at 72 h, 50 µM"
measured_number = 1.61

[[record]]
molecule = "O=C(Cn1c(=O)oc2cc(Cl)ccc21)Nc1nc2ccccc2s1"
reported_endpoint = "cytotoxicity at 72 h, 50 µM"
measured_number = 38.7

[[record]]
molecule = "O=C(Cn1c(=O)oc2cc([N+](=O)[O-])ccc21)NCc1ccccn1"
reported_endpoint = "cytotoxicity at 72 h, 50 µM"
measured_number = 21.8

[[record]]
molecule = "O=C(Cn1c(=O)oc2cc([N+](=O)[O-])ccc21)Nc1ccccn1"
reported_endpoint = "cytotoxicity at 72 h, 50 µM"
measured_number = 38.6


Enquiry: I have this compound here, `O=C(Cn1c(=O)oc2cc(Cl)ccc21)Nc1nc2ccc([N+](=O)[O-])cc2s1` , and I need its recorded cytotoxicity at 72 h, 50 µM.
Return: 12.5

Enquiry: For `O=C(Cn1c(=O)oc2cc([N+](=O)[O-])ccc21)Nc1nc2ccccc2s1` , what is its reported cytotoxicity at 72 h, 50 µM?
Return: 22.7

Entry source: ChEMBL document CHEMBL3352380
